These entries and their values trace back to patent US20240336602A1.

# SYSTEM_TESTED: mouse TRPM3a2 (mTRPM3) ion channel (Mus musculus)
# Construct: expressed in transfected cells; host or cells: flip-in HEK293
# Sequence (J9SQF3 1-1709 isoform J9SQF3-12): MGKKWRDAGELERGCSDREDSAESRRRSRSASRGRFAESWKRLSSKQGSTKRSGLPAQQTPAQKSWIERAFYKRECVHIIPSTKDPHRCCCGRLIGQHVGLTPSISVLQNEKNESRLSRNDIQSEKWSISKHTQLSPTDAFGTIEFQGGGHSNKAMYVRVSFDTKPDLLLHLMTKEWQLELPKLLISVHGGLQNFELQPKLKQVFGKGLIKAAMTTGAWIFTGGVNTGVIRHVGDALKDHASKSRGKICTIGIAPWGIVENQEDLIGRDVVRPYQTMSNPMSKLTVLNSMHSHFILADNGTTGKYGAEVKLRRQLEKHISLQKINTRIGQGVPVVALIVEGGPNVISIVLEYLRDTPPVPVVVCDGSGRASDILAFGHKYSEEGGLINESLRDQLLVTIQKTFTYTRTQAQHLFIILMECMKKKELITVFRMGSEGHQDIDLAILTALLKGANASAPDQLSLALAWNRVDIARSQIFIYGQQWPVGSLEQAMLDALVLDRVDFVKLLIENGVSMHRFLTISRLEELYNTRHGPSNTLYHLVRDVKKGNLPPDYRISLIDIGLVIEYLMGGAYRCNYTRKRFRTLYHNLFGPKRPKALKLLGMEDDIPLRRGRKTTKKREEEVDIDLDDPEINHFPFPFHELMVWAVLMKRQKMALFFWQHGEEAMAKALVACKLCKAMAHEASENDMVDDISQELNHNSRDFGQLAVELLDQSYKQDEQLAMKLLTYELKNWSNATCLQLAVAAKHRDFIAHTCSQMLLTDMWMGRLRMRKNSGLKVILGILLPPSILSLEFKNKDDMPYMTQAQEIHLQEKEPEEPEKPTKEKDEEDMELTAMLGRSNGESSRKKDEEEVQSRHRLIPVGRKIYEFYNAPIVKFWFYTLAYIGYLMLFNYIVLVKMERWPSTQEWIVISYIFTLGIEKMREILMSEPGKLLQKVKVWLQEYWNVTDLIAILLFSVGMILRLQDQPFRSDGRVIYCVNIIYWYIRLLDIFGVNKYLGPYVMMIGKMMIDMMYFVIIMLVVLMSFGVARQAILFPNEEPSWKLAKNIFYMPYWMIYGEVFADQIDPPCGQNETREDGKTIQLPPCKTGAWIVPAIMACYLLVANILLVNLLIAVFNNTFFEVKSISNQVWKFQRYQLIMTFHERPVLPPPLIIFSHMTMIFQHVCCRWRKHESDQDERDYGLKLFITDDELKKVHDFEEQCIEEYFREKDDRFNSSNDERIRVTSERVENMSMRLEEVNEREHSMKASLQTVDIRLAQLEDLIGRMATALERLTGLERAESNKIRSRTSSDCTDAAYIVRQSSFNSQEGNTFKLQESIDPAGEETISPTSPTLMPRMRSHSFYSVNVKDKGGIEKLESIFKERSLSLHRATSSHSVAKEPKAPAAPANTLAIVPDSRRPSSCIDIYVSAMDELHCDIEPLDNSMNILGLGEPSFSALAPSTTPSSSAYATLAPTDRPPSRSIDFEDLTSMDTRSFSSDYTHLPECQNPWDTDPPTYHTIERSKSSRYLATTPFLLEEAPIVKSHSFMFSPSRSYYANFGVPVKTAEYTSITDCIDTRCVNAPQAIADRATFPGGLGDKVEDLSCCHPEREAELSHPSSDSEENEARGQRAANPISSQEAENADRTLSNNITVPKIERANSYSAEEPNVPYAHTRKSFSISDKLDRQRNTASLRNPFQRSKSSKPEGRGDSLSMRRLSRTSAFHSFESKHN
# ASSAY_EXPLANATION: TRPM3 ion channel driven Ca2+ uptake, Fluo-4 AM assay (PS-stimulated, overexpressing flip-in HEK293 cells)
# Assay type: cell-based
# STUDY_CONDITIONS: PS (50 μM) stimulated, cpds. 667-751
Catalogue of IC50 readings, one per entry.

COMPOUND: Cc1ncsc1COc1ccc2oc(C)c(C(=O)NC(Cn3cncn3)C(N)=O)c2c1 (single isomer, unassigned) [729 - En 1]
IC50: ≤ 1000 nM

COMPOUND: Cc1oc2ccc(OCc3c[nH]nc3C(F)(F)F)cc2c1C(=O)N[C@H](C(N)=O)[C@@H](C)O
IC50: ≤ 1000 nM

COMPOUND: Cc1oc2ccc(OCc3ccnn3C)cc2c1C(=O)NC1(CO)CCNC1=O (single isomer, unassigned)
IC50: ≤ 1000 nM
